- tested.on: Aromatase (Homo sapiens)
- measurement.notes: qHTS assay to identify aromatase inhibitors (AID 743083); also: nearly all actives have a fitted effect of over 55% in size
- condition.summary: MCF-7 aro ERE, testosterone-driven ERE luciferase, 24 h; series mostly up to 70.3 µM
Inconclusive results are not listed. Calls of active or inactive are those of the source. Calls follow the shape of the dose curve; as a rule, active = well fitted inhibition curve with a large enough effect in the repeat runs; inconclusive = weak or mixed curves; inactive = no such curve, though single readings can be large or run the other way.
Select the correct class. Options are true (active), false (inactive) and nothing else.

Name the outcome recorded for CC(=O)[C@H]1CC[C@H]2[C@@H]3C=CC4=CC(=O)CC[C@@]4(C)[C@@H]3CC[C@]12C in the assay.
false

Name the outcome recorded for C=CC(=C)CCCC(C)(C)OC(C)=O in the assay.
false

Name the outcome recorded for Cc1oc(C)c(C(=O)Nc2ccccc2)c1C in the assay.
true

Name the outcome recorded for C/C=C/C=C/CCCCCCCO in the assay.
false

Name the outcome recorded for CCCCC/C(=C\c1ccccc1)CO in the assay.
true

Name the outcome recorded for CC1CC(=O)NN=C1c1ccc(NCC(C)(C)NCC(O)COc2cc(Cl)ccc2C#N)cc1 (stereo not drawn) in the assay.
false

Name the outcome recorded for Nc1ccc(S(=O)(=O)O)cc1 in the assay.
false

Name the outcome recorded for CNC(=S)NC in the assay.
false

Name the outcome recorded for Cc1ccc(S)cc1 in the assay.
false

Name the outcome recorded for CC(CCO)CCc1ccccc1 (stereo not drawn) in the assay.
false

Name the outcome recorded for Cc1ccccc1N1C(=O)c2cc(S(N)(=O)=O)c(Cl)cc2NC1C (stereo not drawn) in the assay.
false

Name the outcome recorded for CCOC(=O)C(C)Oc1ccc(Oc2nc3ccc(Cl)cc3o2)cc1 (stereo not drawn) in the assay.
false

Name the outcome recorded for CC(=N\O)/C(C)=N/O in the assay.
false

---

- tested.on: Nuclear receptor subfamily 1 group I member 2 (Rattus norvegicus) (UniProt Q9R1A7)
- Sequence (Q9R1A7 whole entry, looked up): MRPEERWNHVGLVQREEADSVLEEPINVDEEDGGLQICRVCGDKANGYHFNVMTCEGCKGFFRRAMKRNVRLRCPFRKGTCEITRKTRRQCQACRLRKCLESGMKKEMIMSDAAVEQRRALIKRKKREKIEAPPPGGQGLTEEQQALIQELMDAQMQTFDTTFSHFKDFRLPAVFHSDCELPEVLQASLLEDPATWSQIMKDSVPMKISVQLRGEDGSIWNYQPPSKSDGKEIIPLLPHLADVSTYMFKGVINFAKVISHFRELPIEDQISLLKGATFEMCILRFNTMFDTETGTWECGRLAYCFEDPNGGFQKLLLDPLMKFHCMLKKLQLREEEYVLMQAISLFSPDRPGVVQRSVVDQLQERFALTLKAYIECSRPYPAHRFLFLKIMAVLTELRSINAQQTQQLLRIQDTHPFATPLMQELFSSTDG
- measurement.notes: Rat pregnane X receptor (rPXR) activation by small molecules, qHTS assay (AID 1346983); also: potency is read from the fitted curve at half-maximal effect; nearly all actives have a fitted effect of over 20% in size
- condition.summary: rPXR luciferase reporter cells, One-Glo luminescence, 24 h
Inconclusive results are not listed. Activity calls are given as the source filed them. Calls come from the whole dose curve; as a rule, active = well fitted activation curve with a large enough effect in the repeat runs; inconclusive = weak or mixed curves; inactive = no such curve, though single readings can be large or run the other way.
property: Potency

CCc1nn(CCCN2CCN(c3cccc(Cl)c3)CC2)c(=O)n1CCOc1ccccc1 tested on Nuclear receptor subfamily 1 group I member 2 (Rattus norvegicus) (UniProt Q9R1A7) gave Potency: 12.6 µM (active)

CC(=O)[C@H]1CC[C@H]2[C@@H]3C[C@H](C)C4=CC(=O)CC[C@]4(C)[C@H]3[C@@H](O)C[C@]12C tested on Nuclear receptor subfamily 1 group I member 2 (Rattus norvegicus) (UniProt Q9R1A7) gave Potency: 2.51 µM (active)

C[C@@H]1C[C@H]2[C@@H]3CCC4=CC(=O)C=C[C@]4(C)[C@@]3(F)[C@@H](O)C[C@]2(C)[C@H]1C(=O)CO tested on Nuclear receptor subfamily 1 group I member 2 (Rattus norvegicus) (UniProt Q9R1A7) gave Potency: 2.51 µM (active)

CCCCC(=O)O[C@]1(C(=O)CO)CC[C@H]2[C@@H]3CCC4=CC(=O)CC[C@]4(C)[C@H]3[C@@H](O)C[C@@]21C tested on Nuclear receptor subfamily 1 group I member 2 (Rattus norvegicus) (UniProt Q9R1A7) gave Potency: 6.31 µM (active)

COCc1c(C(C)C)nc(C(C)C)c(/C=C/[C@@H](O)C[C@@H](O)CC(=O)O)c1-c1ccc(F)cc1 tested on Nuclear receptor subfamily 1 group I member 2 (Rattus norvegicus) (UniProt Q9R1A7) gave Potency: 11.2 µM (active)

CC(C)(C)C(=O)C(Oc1ccc(Cl)cc1)n1ccnc1 (stereo unspecified) tested on Nuclear receptor subfamily 1 group I member 2 (Rattus norvegicus) (UniProt Q9R1A7) gave Potency: 12.6 µM (active)
